Here, each record is paired with measured binding signal data.
biological target: OsWRKY34 (Oryza sativa, UniProt Q0JBA9 1-250); test: protein-binding microarray (RPBM); PBS, 2% BSA, 51.3 ng/ul salmon testes DNA, 50 uM zinc acetate, 200 nM TF, 25 C, 1 h; high values mean tight binding; details: protein: recombinant; tags: N-terminal polyhistidine and DsRed monomer fusion (pET32a); label: CyDye5-dUTP incorporated in the synthesized complementary strand; 3' TTTTT single-stranded linker to array surface; dsDNA, one strand shown
Sequence (Q0JBA9 entry or part of it): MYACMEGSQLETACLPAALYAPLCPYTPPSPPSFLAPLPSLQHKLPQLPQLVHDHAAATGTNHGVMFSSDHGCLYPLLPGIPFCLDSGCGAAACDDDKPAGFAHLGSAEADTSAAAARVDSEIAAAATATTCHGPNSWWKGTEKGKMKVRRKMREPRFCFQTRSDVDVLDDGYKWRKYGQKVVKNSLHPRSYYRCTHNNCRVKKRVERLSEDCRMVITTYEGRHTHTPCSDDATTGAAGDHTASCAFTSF
Over roughly 68,000 sequences, “fluorescence intensity (a.u.)” has its median near 9,100; the highest 2% begin near 16,000. What follows is part of a selection rich in the highest values, with near analogues and random picks from the rest.

sequenceString	binding signal
CCTTGGGTGGGTACGGATTGGATTAGGGAGGGGAGCACAACGGAGTCACCTAGTGCAG	17600 fluorescence intensity (a.u.)
TATGAAGTTGATTTTGTGGATTTTTTCATCGTGATTTATTCGGAGTCACCTAGTGCAG	8890 fluorescence intensity (a.u.)
GATGACGCCGTTGACTTTTTCTCACATGTTTGACCAATCGCGGAGTCACCTAGTGCAG	36900 fluorescence intensity (a.u.)
ACCCGCACACCGTCCCGTGCCAGCTGCCTCGCCACCGTTCCGGAGTCACCTAGTGCAG	11900 fluorescence intensity (a.u.)
GGTAGGATTGTACTTTTTTTTTTTTTGGGACGGAGGGGTACGGAGTCACCTAGTGCAG	10100 fluorescence intensity (a.u.)
TGCTGTCGTATACTAGAAGCTGATGCTTTTCTTGCTTAGTCGGAGTCACCTAGTGCAG	8940 fluorescence intensity (a.u.)

----------
biological target: OsWRKY34 (Oryza sativa, UniProt Q0JBA9 1-250); assay: protein-binding microarray (RPBM); PBS, 2% BSA, 51.3 ng/ul salmon testes DNA, 50 uM zinc acetate, 200 nM TF, 25 C, 1 h; high values mean tight binding; settings: protein: recombinant; tags: N-terminal polyhistidine and DsRed monomer fusion (pET32a); label: CyDye5-dUTP incorporated in the synthesized complementary strand; 3' TTTTT single-stranded linker to array surface; dsDNA, one strand shown
In all, about 68,000 sequences were measured (“fluorescence intensity (a.u.)”: median about 9,100, highest 2% from about 16,000 on). The sample holds the highest values, similar sequences and a random draw of the others, so the mix is not that of the screen.

sequenceString	targetUnderTest	binding signal
ATGTATGACGCTGTTGACTTTGTAACCAATATTTGACCATCGGAGTCACCTAGTGCAG	OsWRKY34 (Oryza sativa, UniProt Q0JBA9 1-250)	13400 fluorescence intensity (a.u.)
CTCTCGTGGTGTGGTGTGGACAAGAAAGGAAGGAAAGATGCGGAGTCACCTAGTGCAG	OsWRKY34 (Oryza sativa, UniProt Q0JBA9 1-250)	8700 fluorescence intensity (a.u.)
TTTCACCTAGTCCTAGCCTAATTCGTCTATCTTTATCAATCGGAGTCACCTAGTGCAG	OsWRKY34 (Oryza sativa, UniProt Q0JBA9 1-250)	9710 fluorescence intensity (a.u.)
AGGAGGAGGAGGAGGAGGAGGAGGAGGCGGTGGGAGGGATCGGAGTCACCTAGTGCAG	OsWRKY34 (Oryza sativa, UniProt Q0JBA9 1-250)	14800 fluorescence intensity (a.u.)
TGTATGATGCTGTTGACTTTTTATCCAACGTTTGACCATCCGGAGTCACCTAGTGCAG	OsWRKY34 (Oryza sativa, UniProt Q0JBA9 1-250)	21200 fluorescence intensity (a.u.)
TCGCTAGGAGTGGTGGTGGTGGTGGGAGGAGGAGGCGATGCGGAGTCACCTAGTGCAG	OsWRKY34 (Oryza sativa, UniProt Q0JBA9 1-250)	13000 fluorescence intensity (a.u.)
CGCTGTTTTTTTTTTATTTTGACGGGTAGTAGAGGCCGCGCGGAGTCACCTAGTGCAG	OsWRKY34 (Oryza sativa, UniProt Q0JBA9 1-250)	9990 fluorescence intensity (a.u.)
AGGGACAGGGTTGGTGAAGTGGCTTCCATGCGGCGGCCACCGGAGTCACCTAGTGCAG	OsWRKY34 (Oryza sativa, UniProt Q0JBA9 1-250)	8150 fluorescence intensity (a.u.)
